- System: MDA-MB231
- Procedure summary: SRB antiproliferative/antigrowth assay
- Format: cell-based, human
- Protocol conditions: Homo sapiens, MDA-MB-231, 48 h, SRB, 48 h post-treatment, mean of triplicates of at least two experiments; read-out: GI50 MB231
Metric name: GI50 (µM)

1. O=S(=O)(NCCCNc1ccnc2cc(C(F)(F)F)ccc12)c1ccc(Cl)cc1Cl 7
2. O=S(=O)(c1ccc(-c2ccccc2)cc1)N1CCN(c2ccnc3cc(C(F)(F)F)ccc23)CC1 27.2
3. O=S(=O)(NCCCNc1ccnc2cc(C(F)(F)F)ccc12)c1ccc(-c2ccccc2)cc1 6
4. CN(C)c1cccc2c(S(=O)(=O)N3CCN(c4ccnc5cc(Cl)ccc45)CC3)cccc12 35
5. CN(C)c1cccc2c(S(=O)(=O)NCCCNc3ccnc4cc(Cl)ccc34)cccc12 12.7
6. O=S(=O)(NCCCNc1ccnc2cc(C(F)(F)F)ccc12)c1ccc(Cl)cc1 12.8

(a) O=S(=O)(c1ccc(Cl)cc1Cl)N1CCN(c2ccnc3cc(Cl)ccc23)CC1
(b) O=[N+]([O-])c1cccc(S(=O)(=O)NCCCNc2ccnc3cc(Cl)ccc23)c1
Task: Given the listed items, does a or b have the lesser reported GI50? Field: selected label. Fill in the label of the entry you choose.
Output: b

(P) O=S(=O)(c1ccc(Cl)cc1)N1CCN(c2ccnc3cc(C(F)(F)F)ccc23)CC1
(Q) O=S(=O)(NCCCNc1ccnc2cc(Cl)ccc12)c1ccc(-c2ccccc2)cc1
(R) O=S(=O)(NCCCNc1ccnc2cc(Cl)ccc12)c1ccc(Cl)cc1Cl
Task: Please list these in order of increasing GI50. Thank you! List labels; respect the requested ordering.
Output: Q, R, P
(Q: 4.6 µM, R: 6.8 µM, P: 41.4 µM)

(A) CS(=O)(=O)N1CCN(c2ccnc3cc(C(F)(F)F)ccc23)CC1
(B) COC(=O)c1sccc1S(=O)(=O)NCCCNc1ccnc2cc(Cl)ccc12
Task: Of A and B , which shows the smaller GI50 value? State your choice using its label.
Output: B
(B: 5.97 µM, A: 44.4 µM)
